src = patent US11905268B2

tested on: CHO cells; assay: Cytotoxicity screen in CHO cells; details: Chinese hamster, CHO K1 cells
hey, just use Y if measured IC50 at 48 h is less than 30 µM, otherwise N

- COc1ccccc1C(=O)Nc1ccc(CN2CCN(c3ccccn3)CC2)cc1C(=O)O [SBI-0814423]: N
- COc1ccccc1C(=O)Nc1ccc(N2CCN(C(=O)c3ccccn3)CC2)cc1C(=O)O [SBI-0814424]: N
- COc1ccccc1N1CCN(c2ccc(NC(=O)c3cccs3)cc2C(=O)O)CC1 [SBI-0800666]: N
- COc1ccccc1C(=O)Nc1ccc(N2CCN(c3ccccn3)CC2)cc1 [SBI-0814417]: Y
- COc1ccccc1C(=O)Nc1ccc(N2CCN(c3cc(Cl)ccc3C)CC2)cc1C(=O)O [SBI-0351221]: Y

### Prompt IC50 at 48 h strictly < 30 µM for this compound? COc1ccccc1C(=O)Nc1ccc(N2CCN(CCc3ccccc3)CC2)cc1C(=O)O [SBI-0814415]
### Response N

### Prompt IC50 at 48 h strictly < 30 µM for this compound? COc1ccccc1C(=O)Nc1ccc(N2CCC(Oc3ccccc3)CC2)cc1C(=O)O [SBI-0814420]
### Response N

---

tested on: L3.6pl cells; assay: Ant44 assay in L3.6pl cells; assay type: cell-based, human; conditions: Table 9; Ant44 3 μM; ECx = y: x% effect at y μM
Measured Endpoint: EC value in Ant44 (3 μM) assay

- O=C(Nc1ccc(N2CCC(Oc3ccccc3)CC2)cc1C(=O)O)c1cccnc1: Not working
- COc1ccccc1C(=O)Nc1ccc(N2CCN(c3cc(Cl)ccc3C)CC2)cc1C(=O)O [drawing 136]: not working as a PTI
- O=C(Nc1ccc(N2CCC(Oc3ccccc3)CC2)cc1C(=O)O)c1ccc(-c2ccc(Cl)cc2)o1: Not working
- O=C(Nc1ccc(N2CCC(Oc3ccccc3)CC2)cc1C(=O)O)c1cc2ccccc2[nH]1: not working as a PTI

---

Test system: L3.6pl cells
Assay: Ant44 assay in L3.6pl cells
Format: cell-based, human
Conditions: Homo sapiens, L3.6pl; Table 3; read-out: Ant44 rescue EC50 L3.6pl
Experimental: For example, in the ANT44 assay an EC48=9 means that the PTI molecule at 9 μM was able to block 48% of the Ant44 entry into L3.6 pl human Pancreatic ductal adenocarcinoma cells after 72 h incubation time at 37° C. Another explanation, is that the PTI was able to disrupt […] of the intracellular trafficking of Ant44 that leads to toxicity. […]
Measured Endpoint: pEC50
Conceptually, pEC50 converts a concentration in mol/L into minus its log10.

For `O=C(Nc1ccc(N2CCN(c3ccccn3)CC2)cc1C(=O)O)c1ccco1` the compound record lists pEC50 as 5.00

---

system: L3.6pl cells; assay: Ant44 assay in L3.6pl cells; format: cell-based, human; details: Homo sapiens, L3.6pl; Table 5B; Ant44 blockade; read-out: L3.6pl EC50
Measured Endpoint: EC50 (µM)
Express it in µM; write the number only.

For `O=C(Nc1ccc(N2CCN(c3ccccn3)CC2)cc1C(=O)O)c1ccco1` the compound record lists EC50 as 10

---

tested on: L3.6pl cells; test: cells; format: cell-based; details: maximum tolerated concentration where cells are >90% viable
hey, just use MET if measured L3.6pl MTC is less than 9 µM, otherwise NOT MET

- COc1ccccc1C(=O)Nc1ccc(N2CCC(Oc3ccccc3)CC2)cc1C(=O)O: NOT MET
- COc1ccc(C(=O)Nc2ccc(N3CCN(c4cc(Cl)ccc4C)CC3)cc2C(=O)O)cc1: MET
- O=C(Nc1ccc(N2CCN(c3ccccn3)CC2)cc1C(=O)O)c1ccco1: NOT MET

### Prompt L3.6pl MTC strictly < 9 µM for this compound? `COc1ccc(C(=O)Nc2ccc(N3CCN(c4ccccc4OC)CC3)cc2C(=O)O)cc1`
### Response MET
